Tested on: Triticum aestivum
ASSAY OVERVIEW: Phytotoxicity against Triticum aestivum (wheat) under greenhouse conditions at 1.3 g/a at 1.5-leaf stage measured after 3 weeks by pot test
Type: organism-based
MEASUREMENT SETUP: in vivo, 504 h
READOUT KIND: Activity

Use these answered entries as a reference point.
{"COMPOUND": "CONC(=O)C(C)Oc1ccc(Oc2ncc(Cl)cc2Cl)cc1 (stereo not given)", "TARGET OF ASSAY": "Triticum aestivum", "Activity": "Toxic"}
{"COMPOUND": "CC(Oc1ccc(Oc2ncc(Cl)cc2Cl)cc1)C(=O)NCC(N)=O (stereo not given)", "TARGET OF ASSAY": "Triticum aestivum", "Activity": "Non-toxic"}
{"COMPOUND": "CC(Oc1ccc(Oc2ncc(Cl)cc2Cl)cc1)C(=O)NOCC(=O)O (stereo not given)", "TARGET OF ASSAY": "Triticum aestivum", "Activity": "Non-toxic"}
{"COMPOUND": "COC(=O)C(C)Oc1ccc(Oc2ccc(Cl)cc2Cl)cc1 (stereo not given)", "TARGET OF ASSAY": "Triticum aestivum", "Activity": "Non-toxic"}
{"COMPOUND": "CC(Oc1ccc(Oc2ccc(C(F)(F)F)cn2)cc1)C(=O)O (stereo not given)", "TARGET OF ASSAY": "Triticum aestivum", "Activity": "Toxic"}
{"COMPOUND": "CC(Oc1ccc(Oc2ncc(Cl)cc2Cl)cc1)C(=O)NCCC(=O)O (stereo not given)", "TARGET OF ASSAY": "Triticum aestivum", "Activity": "Non-toxic"}

For each of the compounds below, state Activity.
1. CC(Oc1ccc(Oc2ncc(Cl)cc2Cl)cc1)C(=O)N(C)OCC(=O)O (stereo not given)
2. CC(Oc1ccc(Oc2ncc(Cl)cc2Cl)cc1)C(N)=O (stereo not given)
3. CC(Oc1ccc(Oc2ccc(C(F)(F)F)cn2)cc1)C(=O)NOCC(=O)O (stereo not given)

Non-toxic
Non-toxic
Toxic

Reported Activity of CCCOC(=O)CNC(=O)C(C)Oc1ccc(Oc2ncc(Cl)cc2Cl)cc1 (stereo not given) : Non-toxic

###

System: Triticum aestivum
ASSAY OVERVIEW: Phytotoxicity against Triticum aestivum (wheat) under greenhouse conditions at 0.3 g/a at 1.5-leaf stage measured after 3 weeks by pot test
Type: organism-based
MEASUREMENT SETUP: in vivo, 504 h
READOUT KIND: Activity

{"MOLECULE": "CC(Oc1ccc(Oc2cnc3cc(Cl)ccc3n2)cc1)C(=O)O (stereo unspecified)", "Activity": "Toxic"}
{"MOLECULE": "CCCOC(=O)CNC(=O)C(C)Oc1ccc(Oc2ncc(Cl)cc2Cl)cc1 (stereo unspecified)", "Activity": "Non-toxic"}
{"MOLECULE": "CC(Oc1ccc(Oc2ncc(Cl)cc2Cl)cc1)C(=O)NCC(N)=O (stereo unspecified)", "Activity": "Non-toxic"}
{"MOLECULE": "CCOC(=O)C(C)Oc1ccc(Oc2ncc(Cl)cc2Cl)cc1 (stereo unspecified)", "Activity": "Toxic"}
{"MOLECULE": "CC(Oc1ccc(Oc2ncc(C(F)(F)F)cc2Cl)cc1)C(=O)NOCC(=O)O (stereo unspecified)", "Activity": "Toxic"}

Reported Activity of CNC(=O)C(C)Oc1ccc(Oc2ncc(Cl)cc2Cl)cc1 (stereo unspecified) : Non-toxic

###

Test system: Triticum aestivum
ASSAY OVERVIEW: Phytotoxicity against Triticum aestivum (wheat) under greenhouse conditions at 2.5 g/a at 1.5-leaf stage measured after 3 weeks by pot test
Format: organism-based
MEASUREMENT SETUP: in vivo, 504 h
READOUT KIND: Activity

Use these answered entries as a reference point.
{"MOLECULE": "CC(Oc1ccc(Oc2ncc(Cl)cc2Cl)cc1)C(=O)NO (stereo not drawn)", "TARGET OF ASSAY": "Triticum aestivum", "READOUT KIND": "Activity", "RESULT": "Non-toxic"}
{"MOLECULE": "CNC(=O)C(C)Oc1ccc(Oc2ncc(Cl)cc2Cl)cc1 (stereo not drawn)", "TARGET OF ASSAY": "Triticum aestivum", "READOUT KIND": "Activity", "RESULT": "Non-toxic"}
{"MOLECULE": "CCNC(=O)CNC(=O)C(C)Oc1ccc(Oc2ncc(Cl)cc2Cl)cc1 (stereo not drawn)", "TARGET OF ASSAY": "Triticum aestivum", "READOUT KIND": "Activity", "RESULT": "Non-toxic"}
{"MOLECULE": "CC(Oc1ccc(Oc2ncc(Cl)cc2Cl)cc1)C(=O)NCCC(=O)O (stereo not drawn)", "TARGET OF ASSAY": "Triticum aestivum", "READOUT KIND": "Activity", "RESULT": "Non-toxic"}

For each of the molecules below, state Activity.
1. CCCCOC(=O)CNC(=O)C(C)Oc1ccc(Oc2ncc(Cl)cc2Cl)cc1 (stereo not drawn)
2. CCCNC(=O)CNC(=O)C(C)Oc1ccc(Oc2ncc(Cl)cc2Cl)cc1 (stereo not drawn)
3. CC(Oc1ccc(Oc2ncc(Cl)cc2Cl)cc1)C(N)=O (stereo not drawn)
4. CC(Oc1ccc(Oc2cnc3cc(Cl)ccc3n2)cc1)C(=O)O (stereo not drawn)
5. CCOC(=O)CNC(=O)C(C)Oc1ccc(Oc2ncc(Cl)cc2Cl)cc1 (stereo not drawn)
6. COC(=O)C(C)Oc1ccc(Oc2ncc(Cl)cc2Cl)cc1 (stereo not drawn)
7. CC(Oc1ccc(Oc2ncc(C(F)(F)F)cc2Cl)cc1)C(=O)NOCC(=O)O (stereo not drawn)

1. Non-toxic
2. Toxic
3. Non-toxic
4. Toxic
5. Toxic
6. Toxic
7. Toxic
